From: patent US4927831A

TARGET: aldose reductase (Bos taurus, UniProt P16116)
Construct: preparation of the enzyme from bovine lens; from tissue; host or cells: bovine lens
PROCEDURE_SUMMARY: in vitro aldose reductase inhibition (modified Hayman and Kinoshita; enzyme from bovine lens)
Type: biochemical
APPLIED_CONDITIONS: 10^-7 M; read-out: % Inhibition IN VITRO
Response key: Condition met means inhibition at 0.1 µM >= 80%; Condition not met means inhibition at 0.1 µM < 80%.

COc1cc2c(cc1Br)C1(CC(=O)NC1=O)C(=O)N(Cc1ccc(Br)cc1F)C2=O (stereo not shown)
Condition met
CN1C(=O)c2ccc(Br)cc2C2(CC(=O)NC2=O)C1=O (stereo not shown)
Condition met
O=C1CC2(C(=O)N1)C(=O)N(Cc1ccc(Cl)c(Cl)c1)C(=O)c1ccccc12 (stereo not shown)
Condition met
O=C1CC2(C(=O)N1)C(=O)N(Cc1ccc(Br)cc1F)C(=O)c1ccc(Cl)cc12 (stereo not shown)
Condition not met

Kindly determine if inhibition at 0.1 µM recorded for O=C1CC2(C(=O)N1)C(=O)N(Cc1ccc(Br)cc1F)C(=O)c1cc(Cl)ccc12 (stereo not shown) is above or exactly 80%.
Condition not met

Kindly determine if inhibition at 0.1 µM recorded for CN1C(=O)c2ccc(Cl)cc2C2(CC(=O)NC2=O)C1=O (stereo not shown) is above or exactly 80%.
Condition not met

Kindly determine if inhibition at 0.1 µM recorded for CN1C(=O)c2ccccc2C2(CC(=O)NC2=O)C1=O (stereo not shown) is above or exactly 80%.
Condition not met

Kindly determine if inhibition at 0.1 µM recorded for CN1C(=O)c2cc(Cl)ccc2C2(CC(=O)NC2=O)C1=O (stereo not shown) is above or exactly 80%.
Condition not met

Kindly determine if inhibition at 0.1 µM recorded for CCCN1C(=O)c2ccccc2C2(CC(=O)NC2=O)C1=O (stereo not shown) is above or exactly 80%.
Condition not met

Kindly determine if inhibition at 0.1 µM recorded for CCN1C(=O)c2ccccc2C2(CC(=O)NC2=O)C1=O (stereo not shown) is above or exactly 80%.
Condition not met

Kindly determine if inhibition at 0.1 µM recorded for O=C1CC2(C(=O)N1)C(=O)N(Cc1ccc(Br)cc1F)C(=O)c1cc(F)ccc12 (stereo not shown) is above or exactly 80%.
Condition met

Kindly determine if inhibition at 0.1 µM recorded for COc1ccc2c(c1)C(=O)N(Cc1ccc(Br)cc1F)C(=O)C21CC(=O)NC1=O (stereo not shown) is above or exactly 80%.
Condition met

Kindly determine if inhibition at 0.1 µM recorded for O=C1CC2(C(=O)N1)C(=O)N(Cc1ccc(Br)cc1F)C(=O)c1c(F)cccc12 (stereo not shown) is above or exactly 80%.
Condition met

Kindly determine if inhibition at 0.1 µM recorded for O=C1C[C@@]2(C(=O)N1)C(=O)N(Cc1ccc(Br)cc1F)C(=O)c1ccccc12 is above or exactly 80%.
Condition met

Kindly determine if inhibition at 0.1 µM recorded for CCCCN1C(=O)c2ccccc2C2(CC(=O)NC2=O)C1=O (stereo not shown) is above or exactly 80%.
Condition not met

Kindly determine if inhibition at 0.1 µM recorded for O=C1CC2(C(=O)N1)C(=O)N(Cc1ccc(Br)cc1F)C(=O)c1cccc(F)c12 (stereo not shown) is above or exactly 80%.
Condition met

###

TARGET: aldose reductase (Bos taurus)
Construct: preparation of the enzyme from bovine lens; from tissue; host or cells: bovine lens
PROCEDURE_SUMMARY: in vitro aldose reductase inhibition (modified Hayman and Kinoshita; enzyme from bovine lens)
Format: biochemical
APPLIED_CONDITIONS: 10^-6 M; read-out: % Inhibition IN VITRO
MEASUREMENT_LABEL: inhibition at 1 µM

COc1cc2c(cc1Br)C1(CC(=O)NC1=O)C(=O)N(Cc1ccc(Br)cc1F)C2=O (centres unmarked)
97%
CN1C(=O)c2ccccc2C2(CC(=O)NC2=O)C1=O (centres unmarked)
91%
O=C1CC2(C(=O)N1)C(=O)N(Cc1ccc(Br)cc1F)C(=O)c1ccc(Cl)cc12 (centres unmarked)
92%

The measured inhibition at 1 µM associated with O=C1C[C@]2(C(=O)N1)C(=O)N(Cc1ccc(Br)cc1F)C(=O)c1ccccc12 reads 51%

The measured inhibition at 1 µM associated with CCCN1C(=O)c2ccccc2C2(CC(=O)NC2=O)C1=O (centres unmarked) reads 62%
